Values compiled from the supplement of paper PMC10126150.

System: ATP;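 note: ATP exposure 15 min at 22 °C before imaging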
experiment.description: switch fluorescence ratio, 500 uM ATP over buffer (Cy3 cluster intensity, sum of 5 cycles each) (fold (ratio)); higher = stronger signal-on switching upon ATP binding; sequences stand for … in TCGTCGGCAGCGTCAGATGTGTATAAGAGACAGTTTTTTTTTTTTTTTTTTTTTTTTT…TC
conditions: aptamer strand: ATP DNA aptamer (quencher-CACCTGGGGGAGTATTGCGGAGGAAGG + anchor), 100 nM annealed; ATP concentration: 500 uM
recorded.endpoint: switch fluorescence ratio

Request: // lookup switch fluorescence ratio for CTAACGGGTA
Response: 1

Request: Any idea what switch fluorescence ratio was measured for CATGAAGATG ?
Response: 0.98

Request: GET /values?readout=switch fluorescence ratio&item= TGAGGGCGTG
Response: 1.01

Request: # get_value(readout='switch fluorescence ratio', item= GCAAAAGGGG )
Response: 0.977

Request: Given the sequence GATTTGCTAG , what is its reported switch fluorescence ratio?
Response: 0.997

Request: Returns the measured switch fluorescence ratio for the input sequence. Input: GCTTTTTCCA
Response: 0.975

Request: Suppose we examine the sequence GGTGCAGGAG ; what switch fluorescence ratio value has been reported?
Response: 0.999

Request: Form field: reported switch fluorescence ratio of TCTTCTGGCT
Response: 1.02

Request: I am curious: what switch fluorescence ratio value has been reported for TGGCGCTTGT ?
Response: 0.978

Request: // returns reported switch fluorescence ratio for input TGAGTTTGGC
Response: 0.986

Request: Recorded switch fluorescence ratio of TACATGTTAG , please.
Response: 1.01

Request: Could you tell me which switch fluorescence ratio is on file for TTGCTTGAGA ?
Response: 0.996

Request: Can you look up the measured switch fluorescence ratio of GTAATGCTTA for me?
Response: 1.01

Request: Return reported switch fluorescence ratio; argument: GGCCATCCAG
Response: 1.01

Request: So what does the record say about switch fluorescence ratio for ACGTTTTTAG ?
Response: 1

Request: Recorded switch fluorescence ratio of GAGGGCCGCG , please.
Response: 0.997

Request: Please report the recorded switch fluorescence ratio for GCGCGTTAGC .
Response: 1.01

Request: Can you share its switch fluorescence ratio? I mean this sequence: GTTATTAGCT
Response: 0.992

Request: Which value of switch fluorescence ratio has been reported for GGCAGTTGGG in the records?
Response: 0.987

Request: State the recorded switch fluorescence ratio for this entry: GTTAGATGGG
Response: 1

Request: Given the entry GAAAAAGGCA , report its measured switch fluorescence ratio.
Response: 0.974

Request: What value of measured switch fluorescence ratio is listed for TCTAATGGAA ?
Response: 1.01

Request: Returns the measured switch fluorescence ratio for the input sequence. Input: TTGAGTATTT
Response: 0.982

Request: // switch fluorescence ratio lookup, key: GTGATGGGGA
Response: 0.989

Request: What value of switch fluorescence ratio has been reported for the following sequence? TGCAACGTCG
Response: 0.998

Request: Consider the sequence TGAATATATG and give its measured switch fluorescence ratio.
Response: 1.02

Request: Requested field: switch fluorescence ratio. Item: GCTCGATTGG
Response: 0.977

Request: // returns reported switch fluorescence ratio for input GGGGGCCCGA
Response: 0.993

Request: Report switch fluorescence ratio for CAAATTTTCT please.
Response: 0.978

Request: Need switch fluorescence ratio, item TTATTGGAGG
Response: 0.992

Request: What value of switch fluorescence ratio has been recorded for this entry: ATTTCAAAAG
Response: 0.974

Request: // query switch fluorescence ratio value for entry ATTTGATGAG
Response: 0.987

Request: I am curious: what switch fluorescence ratio value has been reported for AAAATAAGGC ?
Response: 0.981

Request: # lookup: switch fluorescence ratio of TGGTTATATT
Response: 1.02

Request: Which switch fluorescence ratio is reported for this sequence? TATCCATGGG
Response: 0.978

Request: What does the record list as switch fluorescence ratio for TAGTTTGGGA ?
Response: 1.01

Request: What does the data say about its switch fluorescence ratio? Entry: ATGGTTCGCG
Response: 1

Request: # query: switch fluorescence ratio of entry CGCGTATTGT
Response: 0.999

Request: Consider the sequence shown here: TTTATCCTTT What is its recorded switch fluorescence ratio?
Response: 0.98

Request: Which measured switch fluorescence ratio value corresponds to GGAGTCTGGG ?
Response: 0.981

Request: // lookup switch fluorescence ratio for AACGAGTGTG
Response: 1.01

Request: Which value of switch fluorescence ratio has been reported for CGGCCTAAGG in the records?
Response: 1.01

Request: // lookup switch fluorescence ratio for TCAGGGACTT
Response: 0.984

Request: Could you share which switch fluorescence ratio value was measured for CAGTATTTTG ?
Response: 0.995

Request: What does the record list as switch fluorescence ratio for GGGTCTCGAG ?
Response: 0.987
